Give measured pIC50 for each item. Keep answers brief.
EXPERIMENTAL_SYSTEM: human CSNK1A1 (Homo sapiens (Human), UniProt P48729)
Sequence (P48729 whole entry): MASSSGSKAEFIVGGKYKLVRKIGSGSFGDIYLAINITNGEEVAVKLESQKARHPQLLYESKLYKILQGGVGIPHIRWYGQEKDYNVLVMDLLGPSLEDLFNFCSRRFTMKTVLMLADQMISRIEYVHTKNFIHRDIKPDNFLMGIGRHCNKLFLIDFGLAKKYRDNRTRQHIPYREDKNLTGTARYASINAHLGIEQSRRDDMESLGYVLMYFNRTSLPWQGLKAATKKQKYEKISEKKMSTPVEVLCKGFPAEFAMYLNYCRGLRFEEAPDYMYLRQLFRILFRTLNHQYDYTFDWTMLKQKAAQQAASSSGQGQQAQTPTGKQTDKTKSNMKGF
PROTOCOL_TEXT: CSNK1A1 High ATP Assay (ADP-Glo, 1 mM ATP)
Type: biochemical
CONDITION_DETAILS: read-out: CSNK1A1 high ATP assay IC50 [mol/l] (median)
# reply with the number alone; pIC50 is -log10 of concentration in mol/L

Query string: GET /values?readout=pIC50&item= `Cc1cc(CC(=O)Nc2cc(-c3[nH]c4c(c3Nc3ccccc3)C(=O)N(C)CC4)ccn2)ccn1`
Result string: 7.58

Query string: Could you share which pIC50 value was measured for CC1Cc2[nH]c(-c3ccnc(NC(=O)Cc4ccc(F)cc4)c3)c(Nc3ccccc3F)c2C(=O)N1C (racemic) [Example 100] ?
Result string: 6.60

Query string: Returns the measured pIC50 for the input compound. Input: CC(C(=O)Nc1cc(-c2[nH]c3c(c2Nc2ccccc2Cl)C(=O)NCC3)ccn1)c1ccc(F)cc1 (single isomer, unassigned) [Example 16]
Result string: 6.99

Query string: Name the recorded pIC50 for `CN1CCc2[nH]c(-c3ccnc(NC(=O)Cc4ccc(F)c(F)c4)c3)c(Nc3ccccc3)c2C1=O` .
Result string: 7.21

Query string: Requested field: pIC50. Item: `CN1CCc2[nH]c(-c3ccnc(NC(=O)Cc4ccc(F)cc4)c3)c(Nc3cc(F)ccc3F)c2C1=O`
Result string: 5.90

Query string: I have this compound here, CC(C(=O)Nc1cc(-c2[nH]c3c(c2Nc2ccccc2)C(=O)N(C2CC2)CC3)ccn1)c1ccc(F)cc1 (stereo not shown) , and I need its recorded pIC50.
Result string: 5.71

Query string: What value of pIC50 has been reported for the following compound? CN(C)CCC(C(=O)Nc1cc(-c2[nH]c3c(c2Nc2ccccc2)C(=O)N(C)CC3)ccn1)c1ccccc1 (stereo not shown)
Result string: 5.89

Query string: Quick check: pIC50 of `CN1CCc2[nH]c(-c3ccnc(NC(=O)Cc4cccc(C(F)(F)F)c4)c3)c(Nc3ccccc3)c2C1=O` ?
Result string: 6.34

Query string: Look up pIC50 for this compound: CCN1CCc2[nH]c(-c3ccnc(NC(=O)C(C)c4ccc(F)cc4)c3)c(Nc3ccccc3)c2C1=O (single isomer, unassigned) [Example 26]
Result string: 6.54

Query string: Bench note: what pIC50 did `CC(C)(O)CN1CCc2[nH]c(-c3ccnc(NC(=O)Cc4ccc(F)cc4)c3)c(Nc3ccccc3)c2C1=O` show?
Result string: 5.58

Query string: Could you share which pIC50 value was measured for CC(C(=O)Nc1cc(-c2[nH]c3c(c2Nc2ccccc2)C(=O)N(C)C(C)C3)ccn1)c1ccc(F)cc1 (single isomer, unassigned; (+)) [Example 96] ?
Result string: 7.45

Query string: Data request, read-out pIC50, for CC(C(=O)Nc1cc(-c2[nH]c3c(c2Nc2ccccc2)C(=O)N(C)C(C)C3)ccn1)c1ccc(F)cc1 (single isomer, unassigned; (-)) [Example 93]
Result string: 5.50

Query string: # query: pIC50 of entry CN(C)CCCC(C(=O)Nc1cc(-c2[nH]c3c(c2Nc2ccccc2)C(=O)N(C)CC3)ccn1)c1ccccc1 (racemic) [Example 58]
Result string: 5.92
